Assay: chemical genetic growth profiling, strain panel (AID 1159580);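 also: tested at 20 µM; growth read once vehicle control cultures reached saturation at 30 °C; 1 = growth at the plate median or of vehicle wells; lower values mean less growth of the strain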
Settings: S. cerevisiae deletion strains, growth OD, locus YDR150W, strain NUM1, stronger effect = lower value
Out of some 5,500 compounds screened, about 2,000 (36%) were called active. Another 18% or so got no clear call; they are omitted. Some of the results follow.
normalized growth: recorded values
readout.name: normalized growth

COC(=O)CSCCc1nc(-c2ccc([N+](=O)[O-])cc2)cs1; 0.991
COC(=O)c1scc(S(=O)(=O)C(C)C)c1N/N=C(/C#N)C(=O)c1ccccc1; 0.973
CC(N)C(O)c1ccc(O)c(O)c1 (centres undefined); 0.999
NCC1OC(OC2C(CO)OC(OC3C(O)C(N)CC(N)C3OC3OC(CO)C(O)CC3N)C2O)C(N)C(O)C1OC1OC(CO)C(O)C(O)C1O (centres undefined); 0.991
